- Experimental protocol: Afatinib plasma pharmacokinetics (HPLC-MS/MS)
- Assay type: in vivo, human
- Protocol conditions: human, plasma, po, Afatinib 30 mg multiple oral administrations with letrozole 2.5 mg, N 5; read-out: AUCtau,ss, geometric mean
Reported metric: AUC (ng·h/mL)

1) CN(C)C/C=C/C(=O)Nc1cc2c(Nc3ccc(F)c(Cl)c3)ncnc2cc1O[C@H]1CCOC1 [Afatinib]	579

###

- Experimental protocol: Afatinib plasma pharmacokinetics (HPLC-MS/MS)
- Assay type: in vivo, human
- Protocol conditions: human, plasma, po, Afatinib 30 mg multiple oral administrations with letrozole 2.5 mg, N 5; read-out: tmax,ss, median
Reported metric: Tmax (h)

1. CN(C)C/C=C/C(=O)Nc1cc2c(Nc3ccc(F)c(Cl)c3)ncnc2cc1O[C@H]1CCOC1	4

###

- Experimental protocol: Letrozole plasma pharmacokinetics (HPLC-MS/MS)
- Assay type: in vivo, human
- Protocol conditions: human, plasma, oral, 2.5 mg; read-out: geometric mean AUCtau,ss
- Experimental: For quantification of drug plasma concentrations, 5 mL of venous blood was collected. […] Letrozole plasma concentrations were determined by a validated HPLC–MS/MS assay at Nuvisan Pharma Services GmbH & Co. KG, Neu-Ulm, Germany.
Reported metric: AUC

1) N#Cc1ccc(C(c2ccc(C#N)cc2)n2cncn2)cc1	2420 ng·h/mL

###

- Experimental protocol: Afatinib plasma pharmacokinetics (HPLC-MS/MS)
- Format: in vivo, human
- Protocol conditions: human, plasma, po, Afatinib 40 mg multiple oral administrations with letrozole 2.5 mg, N 4; read-out: tmax,ss, median
Reported metric: Tmax (h)

1. CN(C)C/C=C/C(=O)Nc1cc2c(Nc3ccc(F)c(Cl)c3)ncnc2cc1O[C@H]1CCOC1	2

###

- Experimental protocol: Letrozole plasma pharmacokinetics (HPLC-MS/MS)
- Type: in vivo, human
- Protocol conditions: human, plasma, oral, 2.5 mg; read-out: geometric mean Cmax,ss
Reported metric: Cmax (ng/mL)

1. N#Cc1ccc(C(c2ccc(C#N)cc2)n2cncn2)cc1	135
